Molecular target: Human immunodeficiency virus type 1 protease (Human immunodeficiency virus 1) (UniProt Q72874)
Assay: Percent inhibition of HIV-1 protease at a concentration level of 25 nM relative to compound I was determined by UV absorbance
Where a SMILES comes first, the peptide text is derived from it. Bridges are numbered along the chain shown (N, C = ends). Roman numbers before positions name the chains, in order. The star is where a group is joined. C16 diacid = O=C(O)CCCCCCCCCCCCCCC(=O)*
Each item that follows carries a reported inhibition.

# COMPOUND, inhibition [%]
measured = [
    ("CC[C@H](C)[C@H](NC(=O)[C@H](CCC(N)=O)NC(=O)[C@@H]1CCCN1C(=O)CCCCCCCCCCCCCCC(=O)N[C@@H](CO)C(=O)N[C@H](C(=O)N[C@@H](CC(C)C)C(=O)N[C@@H](CC(N)=O)C(=O)N[C@@H](Cc1ccccc1)C(=O)O)[C@@H](C)O)C(=O)N[C@@H](C)C(=O)N[C@@H](CC(C)C)C(=O)N[C@@H](Cc1c[nH]c2ccccc12)C(=O)O (I: PQIALW-OH / II: STLNF-OH; linker I:N-II:N via C16 diacid)", 3.3),
    ("CC[C@H](C)[C@H](NC(=O)[C@H](CCC(N)=O)NC(=O)[C@@H]1CCCN1C(=O)CCCCCCCCCCCCCCC(=O)N[C@@H](CO)C(=O)N[C@H](C(=O)N[C@@H](C)C(=O)N[C@@H](CC(N)=O)C(=O)N[C@@H](Cc1ccccc1)C(=O)O)[C@H](C)O)C(=O)N[C@H](C(=O)N[C@@H](CC(C)C)C(=O)N[C@@H](Cc1c[nH]c2ccccc12)C(=O)O)[C@@H](C)O", 4.5),
    ("CC[C@H](C)[C@H](NC(=O)[C@H](CCC(N)=O)NC(=O)[C@@H]1CCCN1C(=O)CCCCCCCCCCCCCCC(=O)N[C@@H](CO)C(=O)N[C@H](C(=O)N[C@@H](CC(C)C)C(=O)N[C@@H](CC(N)=O)C(=O)N[C@@H](Cc1ccccc1)C(=O)O)[C@H](C)O)C(=O)N[C@H](C(=O)N[C@@H](C)C(=O)N[C@@H](Cc1c[nH]c2ccccc12)C(=O)O)[C@@H](C)O", 1.6),
    ("CC[C@H](C)[C@H](NC(=O)[C@H](CCC(N)=O)NC(=O)[C@@H]1CCCN1C(=O)CCCCCCCCCCCCCCC(=O)N[C@@H](C)C(=O)N[C@H](C(=O)N[C@@H](CC(C)C)C(=O)N[C@@H](CC(N)=O)C(=O)N[C@@H](Cc1ccccc1)C(=O)O)[C@H](C)O)C(=O)N[C@H](C(=O)N[C@@H](CC(C)C)C(=O)N[C@@H](Cc1c[nH]c2ccccc12)C(=O)O)[C@@H](C)O", 1.1),
    ("CC[C@H](C)[C@H](NC(=O)[C@H](C)NC(=O)[C@@H]1CCCN1C(=O)CCCCCCCCCCCCCCC(=O)N[C@@H](CO)C(=O)N[C@H](C(=O)N[C@@H](CC(C)C)C(=O)N[C@@H](CC(N)=O)C(=O)N[C@@H](Cc1ccccc1)C(=O)O)[C@@H](C)O)C(=O)N[C@H](C(=O)N[C@@H](CC(C)C)C(=O)N[C@@H](Cc1c[nH]c2ccccc12)C(=O)O)[C@@H](C)O (I: PAITLW-OH / II: STLNF-OH; linker I:N-II:N via C16 diacid)", 0.8),
    ("CC[C@H](C)[C@H](NC(=O)[C@H](CCC(N)=O)NC(=O)[C@@H]1CCCN1C(=O)CCCCCCCCCCCCCCC(=O)N[C@@H](CO)C(=O)N[C@H](C(=O)N[C@@H](CC(C)C)C(=O)N[C@@H](C)C(=O)N[C@@H](Cc1ccccc1)C(=O)O)[C@H](C)O)C(=O)N[C@H](C(=O)N[C@@H](CC(C)C)C(=O)N[C@@H](Cc1c[nH]c2ccccc12)C(=O)O)[C@@H](C)O", 1.9),
    ("CC[C@H](C)[C@H](NC(=O)[C@H](CCC(N)=O)NC(=O)[C@@H]1CCCN1C(=O)CCCCCCCCCCCCCCC(=O)N[C@@H](CO)C(=O)N[C@@H](C)C(=O)N[C@@H](CC(C)C)C(=O)N[C@@H](CC(N)=O)C(=O)N[C@@H](Cc1ccccc1)C(=O)O)C(=O)N[C@H](C(=O)N[C@@H](CC(C)C)C(=O)N[C@@H](Cc1c[nH]c2ccccc12)C(=O)O)[C@@H](C)O (I: PQITLW-OH / II: SALNF-OH; linker I:N-II:N via C16 diacid)", 3.3),
    ("CC[C@H](C)[C@H](NC(=O)[C@H](CCC(N)=O)NC(=O)[C@@H]1CCCN1C(=O)CCCCCCCCCCCCCCC(=O)N[C@@H](CO)C(=O)N[C@H](C(=O)N[C@@H](CC(C)C)C(=O)N[C@@H](CC(N)=O)C(=O)N[C@@H](C)C(=O)O)[C@H](C)O)C(=O)N[C@H](C(=O)N[C@@H](CC(C)C)C(=O)N[C@@H](Cc1c[nH]c2ccccc12)C(=O)O)[C@@H](C)O", 3.5),
    ("CC[C@H](C)[C@H](NC(=O)[C@H](CCC(N)=O)NC(=O)[C@@H]1CCCN1C(=O)CCCCCCCCCCCCCCC(=O)N[C@@H](CO)C(=O)N[C@H](C(=O)N[C@@H](CC(C)C)C(=O)N[C@@H](CC(N)=O)C(=O)N[C@@H](Cc1ccccc1)C(=O)O)[C@@H](C)O)C(=O)N[C@H](C(=O)N[C@@H](CC(C)C)C(=O)N[C@@H](C)C(=O)O)[C@@H](C)O (I: PQITLA-OH / II: STLNF-OH; linker I:N-II:N via C16 diacid)", 26),
    ("CC(C)C[C@H](NC(=O)[C@@H](NC(=O)[C@H](CO)NC(=O)CCCCCCCCCCCCCCC(=O)N1CCC[C@H]1C(=O)N[C@@H](CCC(N)=O)C(=O)N[C@@H](C)C(=O)N[C@H](C(=O)N[C@@H](CC(C)C)C(=O)N[C@@H](Cc1c[nH]c2ccccc12)C(=O)O)[C@@H](C)O)[C@H](C)O)C(=O)N[C@@H](CC(N)=O)C(=O)N[C@@H](Cc1ccccc1)C(=O)O", 2.7),
]
